Test target: DGKζ (Homo sapiens (Human))
Test: Biochemical DGK IC50 assay, DGKζ ADP-Glo assay
Condition summary: 0.5 nM enzyme, 140 μM ATP, 80 μM DAG; read-out: DGKζ ADP-Glo assay IC50
Strictly below 9000 nM in IC50: true. Otherwise: false.

Below 9000 nM on IC50? Entry CC(c1ccc2nccnc2c1)N1C[C@H](C)N(c2cc(=O)n(C)c3cn(C4CCC4)nc23)C[C@H]1C (stereo partly shown)
false

Field: below-cutoff. Rule: recorded IC50 strictly less than 9000 nM. Subject: CC[C@H]1CN(C(C)c2ccncc2C(F)(F)F)[C@H](CC)CN1c1cc(=O)n(C)c2cn(CC#N)nc12 (stereo partly shown)
true

Report whether reported IC50 is lower than 9000 nM (strictly) for CC[C@H]1CN(C(C)c2ccc(C(F)(F)F)nc2)[C@H](CC)CN1c1cc(=O)n(C)c2cn(CC#N)nc12 (single isomer, unassigned) [Compound A135b]
true

Hello, is IC50 of the following compound strictly smaller than 9000 nM? CC[C@H]1CN(C(C)c2cccc(CO)c2)[C@H](CC)CN1c1cc(=O)n(C)c2cn(CC#N)nc12 (stereo partly shown) [Compound A121b]
false

Input `C[C@@H]1CN(c2nc(=O)n(C)c3c(Cl)n(CC#N)nc23)[C@@H](C)CN1[C@H](C)c1ccc2nccnc2c1` ; condition: IC50 strictly below 9000 nM. Does it hold?
true

Field: below-cutoff. Rule: recorded IC50 strictly less than 9000 nM. Subject: CC[C@H]1CN(C(C)c2ccc(C(F)(F)F)c(OC)c2)[C@H](CC)CN1c1cc(=O)n(C)c2cn(CC#N)nc12 (stereo partly shown)
true

----------
Test target: DGKζ (Homo sapiens (Human), UniProt Q13574)
Sequence (Q13574 other isoform, or with tags, fused parts or gaps): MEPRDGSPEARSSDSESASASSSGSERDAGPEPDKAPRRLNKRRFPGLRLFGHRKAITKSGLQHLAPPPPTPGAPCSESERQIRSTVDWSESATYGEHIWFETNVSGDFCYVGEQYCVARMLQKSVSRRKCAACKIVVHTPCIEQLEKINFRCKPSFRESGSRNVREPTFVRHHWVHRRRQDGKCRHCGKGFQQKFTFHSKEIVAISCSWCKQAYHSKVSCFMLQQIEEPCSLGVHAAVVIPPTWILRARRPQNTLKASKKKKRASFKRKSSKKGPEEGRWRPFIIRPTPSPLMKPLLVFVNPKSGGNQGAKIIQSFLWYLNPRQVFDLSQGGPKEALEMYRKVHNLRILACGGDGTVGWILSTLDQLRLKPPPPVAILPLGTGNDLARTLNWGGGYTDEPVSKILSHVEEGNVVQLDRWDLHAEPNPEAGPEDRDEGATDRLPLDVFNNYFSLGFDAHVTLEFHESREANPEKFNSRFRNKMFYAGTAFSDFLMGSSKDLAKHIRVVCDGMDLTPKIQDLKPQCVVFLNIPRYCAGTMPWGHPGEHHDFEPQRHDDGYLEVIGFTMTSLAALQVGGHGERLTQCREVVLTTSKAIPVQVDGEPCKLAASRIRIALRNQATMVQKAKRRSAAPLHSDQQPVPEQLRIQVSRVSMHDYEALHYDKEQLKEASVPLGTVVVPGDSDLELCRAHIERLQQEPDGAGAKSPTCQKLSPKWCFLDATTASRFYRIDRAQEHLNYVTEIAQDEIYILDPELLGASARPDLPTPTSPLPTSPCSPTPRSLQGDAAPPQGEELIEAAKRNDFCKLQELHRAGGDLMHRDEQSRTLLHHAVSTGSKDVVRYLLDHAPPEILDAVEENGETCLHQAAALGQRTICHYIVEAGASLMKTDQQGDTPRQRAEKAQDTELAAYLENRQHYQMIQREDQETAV
Test: Biochemical DGK IC50 assay, DGKζ ADP-Glo assay
Condition summary: 0.5 nM enzyme, 140 μM ATP, 80 μM DAG; read-out: DGKζ ADP-Glo assay IC50
IC50 strictly under 1000 nM means class 1; at 1000 nM or over means class 0.

Does the reported IC50 of CC[C@H]1CN(C(C)c2cncn2CC(F)F)[C@H](CC)CN1c1cc(=O)n(C)c2cn(CC#N)nc12 (stereo partly shown) stay below 1000 nM?
class 0

Determine if [2H]C([2H])([2H])n1c(=O)cc(N2C[C@@H](CC)N(C(C)c3ccc4nccnc4c3)C[C@@H]2CC)c2nn(CC#N)cc21 (stereo partly shown) shows IC50 strictly lower than 1000 nM.
class 1

# strict comparison: is reported IC50 < 1000 nM? input = CC[C@H]1CN(C(C)c2ccc3cccnc3n2)[C@H](CC)CN1c1cc(=O)n(C)c2cn(CC#N)nc12 (stereo partly shown)
class 1

Confirm or reject: IC50 of CC[C@H]1CN(C(C)c2ccc(F)cc2C(F)(F)F)[C@H](CC)CN1c1cc(=O)n(C)c2c[nH]nc12 (single isomer, unassigned) [Compound A275b] lies strictly below 1000 nM
class 0

IC50 under 1000 nM? Item: `CC[C@@H]1CN(c2cc(=O)n(C)c3cn(CC#N)nc23)[C@@H](CC)CN1C(=O)c1ccc(C2CC2)cc1`
class 0

Please let me know if CC[C@H]1CN(C(C)c2ncc(F)cc2C(F)(F)F)[C@H](CC)CN1c1cc(=O)n(C)c2cn(CC#N)nc12 (stereo partly shown) shows IC50 below 1000 nM.
class 1

Just wondering, is IC50 of CC[C@H]1CN(C(C)c2cc(C)ccc2C(F)(F)F)[C@H](CC)CN1c1cc(=O)n(C)c2cn(CC#N)nc12 (stereo partly shown) below 1000 nM?
class 0

Lab note: IC50 threshold 1000 nM. Does this compound come in strictly under it? CC[C@H]1CN(C(C)c2ccc(F)cn2)[C@H](CC)CN1c1cc(=O)n(C)c2cn(CC#N)nc12 (stereo partly shown) [Compound A74]
class 1

Please let me know if CC[C@@H]1CN(c2c(C#N)c(=O)n(CC#N)c3cn(CC#N)nc23)[C@@H](C)CN1C(C)c1ccc2nccnc2c1 (stereo partly shown) shows IC50 below 1000 nM.
class 0

IC50 under 1000 nM? Item: CC(c1ccc2ncc(CO)nc2c1)N1C[C@H](C)N(c2cc(=O)n(C)c3cn(CC#N)nc23)C[C@H]1C (stereo partly shown) [Compound A309]
class 1

Consider the compound COCCn1cc2c(n1)c(N1C[C@@H](C)N(C(C)c3ccc4nccnc4c3)C[C@@H]1C)cc(=O)n2C (stereo partly shown) . Is its IC50 strictly less than 1000 nM?
class 0

IC50 strictly < 1000 nM for this compound? CC[C@H]1CN(C(C)c2ccc(F)cc2F)[C@H](CC)CN1c1cc(=O)n(C)c2cn(CC#N)nc12 (single isomer, unassigned) [Compound A132a]
class 1

Quick check: does CC(c1ccc2ccc(C#N)cc2c1)N1C[C@H](C)N(c2cc(=O)n(C)c3cn(CC#N)nc23)C[C@H]1C (stereo partly shown) have IC50 under 1000 nM?
class 0

----------
Test target: DGKζ (Homo sapiens (Human), UniProt Q13574)
Test: Biochemical DGK IC50 assay, DGKζ ADP-Glo assay
Condition summary: 0.5 nM enzyme, 140 μM ATP, 80 μM DAG; read-out: DGKζ ADP-Glo assay IC50
Parameter: pIC50
Keep in mind that pIC50 stands for -log10 of concentration in molar terms.

// pIC50 value for CC[C@H]1CN(C(C)c2ccc(F)c(F)c2C(F)(F)F)[C@H](CC)CN1c1cc(=O)n(C)c2cn(CC#N)nc12 (stereo partly drawn) : 6.58

The reported pIC50 of the molecule CCc1c(C(C)N2C[C@H](CC)N(c3cc(=O)n(C)c4cn(CC#N)nc34)C[C@H]2CC)cnn1C (single isomer, unassigned) [Compound A213a] was 5.87

Briefly, pIC50 measured for CC(c1ccc2c(c1)OCCO2)N1C[C@H](C)N(c2cc(=O)n(C)c3cn(CC#N)nc23)C[C@H]1C (single isomer, unassigned) [Compound A43b] : 7.30

----------
So I've got a bunch of molecules here, and I need their pIC50 values.
Quick note: pIC50 values are minus log10 of concentrations in mol/L.

pIC50 of CC(c1ccc2nccnc2c1)N1C[C@H](CCO)N(c2cc(=O)n(C)c3cn(CC#N)nc23)C[C@H]1C (stereo partly drawn) [Compound A145] , assay on DGKα (Homo sapiens (Human)), is 4.69

# pIC50 measured on DGKα (Homo sapiens (Human)) for item CC(c1ccc2c(c1)C(F)(F)CCO2)N1C[C@H](C)N(c2cc(=O)n(C)c3cn(CC#N)nc23)C[C@H]1C (stereo partly drawn) [Compound A331] = 4.50

Let me check: CC[C@H]1CN(C(C)c2nc3cccc(C(F)(F)F)c3n2CC)[C@H](CC)CN1c1cc(=O)n(C)c2cn(CC#N)nc12 (single isomer, unassigned) [Compound A230b] , system DGKα (Homo sapiens (Human)), measured pIC50 is 5.21

I looked up CC[C@H]1CN(C(C)c2ccc(C)nn2)[C@H](CC)CN1c1cc(=O)n(C)c2cn(CC#N)nc12 (stereo partly drawn) [Compound A365] and its pIC50 for DGKα (Homo sapiens (Human)) was 6.10

----------
Test target: DGKζ (Homo sapiens (Human), UniProt Q13574)
Test: Biochemical DGK IC50 assay, DGKζ ADP-Glo assay
Condition summary: 0.5 nM enzyme, 140 μM ATP, 80 μM DAG; read-out: DGKζ ADP-Glo assay IC50
pIC50: −log10 of the molar value.
Reported pIC50 maps to class as: bin A: < 6; bin B: ≥ 6 and < 7; bin C: ≥ 7

Kindly state the category for this compound: CC[C@H]1CN(C(C)c2ccc3nccnc3c2)[C@H](CC)CN1c1cc(=O)n(CCO)c2cn(CC#N)nc12 (stereo partly shown)
bin C

Pick a category. Item: COC[C@H]1CN(C(C)c2ccc3nccnc3c2)[C@H](C)CN1c1cc(=O)n(C)c2cn(CC#N)nc12 (stereo partly shown)
bin B

Would you mind sorting CC[C@H]1CN(C(C)c2ccc(F)cn2)[C@H](CC)CN1c1cc(=O)n(C)c2cn(CC#N)nc12 (single isomer, unassigned) [Compound A74a] into the appropriate category?
bin B

Class label required: CC[C@H]1CN(C(C)c2ccccn2)[C@H](CC)CN1c1cc(=O)n(C)c2cn(CC#N)nc12 (stereo partly shown)
bin A

State the band of CC[C@H]1CN(C(C)c2ccc3nccnc3c2)[C@H](CC)CN1c1cc(=O)n(C)c2cn(CC#N)nc12 (mixture of isomers) [Compound A28]
bin C

Category of CC(c1ccc2nccnc2c1)N1C[C@H](C)N(c2cc(=O)n(C)c3cn(C(C)C#N)nc23)C[C@H]1C (stereo partly shown) :
bin B

Tag the class for CC[C@H]1CN(C(C)c2ccc(OC(F)(F)F)cc2)[C@H](CC)CN1c1cc(=O)n(C)c2cn(CC#N)nc12 (stereo partly shown)
bin B

Band for the recorded pIC50 of CC[C@H]1CN(C(C)c2ccc3c(n2)OCCO3)[C@H](CC)CN1c1cc(=O)n(C)c2cn(CC#N)nc12 (stereo partly shown) ?
bin C

Field: class (pIC50) — entry: `CC#CCn1cc2c(n1)c(N1C[C@@H](C)N([C@@H](C)c3ccc4ncc(C)nc4c3)C[C@@H]1C)cc(=O)n2C`
bin C

Class? Entry: CC[C@H]1CN(C(C)c2ccc3c(c2)NCCO3)[C@H](CC)CN1c1cc(=O)n(C)c2cn(CC#N)nc12 (stereo partly shown)
bin B

Band for CC(c1ccc2ncc(C(F)F)nc2c1)N1C[C@H](C)N(c2cc(=O)n(C)c3cn(CC#N)nc23)C[C@H]1C (stereo partly shown) ?
bin C

Would you mind sorting CC[C@H]1CN(C(C)c2nc3ccccc3n2C(C)C)[C@H](CC)CN1c1cc(=O)n(C)c2cn(CC#N)nc12 (stereo partly shown) into the appropriate category?
bin A

Would you mind sorting CC[C@H]1CN(C(C)c2nc3ccc(C(F)(F)F)cc3n2CC)[C@H](CC)CN1c1cc(=O)n(C)c2cn(CC#N)nc12 (single isomer, unassigned) [Compound A204b] into the appropriate category?
bin B

Lab note: which band did C[C@@H]1CN(c2cc(=O)n(C)c3c(C(F)(F)F)nn(CC#N)c23)[C@@H](C)CN1[C@@H](C)c1ccc2nccnc2c1 (single isomer, unassigned) land in?
bin A

Band assignment needed for CC[C@H]1CN(C(C)c2ccccc2C(F)(F)F)[C@H](CC)CN1c1cc(=O)n(C)c2cn(CC#N)nc12 (single isomer, unassigned) [Compound A197b] please.
bin B

Lab log: CC(C1CCOCC1)N1C[C@H](C)N(c2cc(=O)n(C)c3cn(CC#N)nc23)C[C@H]1C (stereo partly shown) — assign pIC50 category
bin A

Dear colleague, I would appreciate it if you could identify the bin for CC[C@H]1CN(C(C)c2ncc(Cl)n2CC)[C@H](CC)CN1c1cc(=O)n(C)c2cn(CC#N)nc12 (single isomer, unassigned) [Compound A187a] and reply at your convenience.
bin A

Which pIC50 band matches CC[C@H]1CN(C(C)c2ccc(C(F)(F)F)cc2F)[C@H](CC)CN1c1cc(=O)n(C)c2cn(CC#N)nc12 (single isomer, unassigned) [Compound A69b] ?
bin A

Which class holds CC[C@H]1CN(C(C)c2cnn(C)c2C(F)(F)F)[C@H](CC)CN1c1cc(=O)n(C)c2cn(CC#N)nc12 (stereo partly shown) ?
bin C

Could you place CC[C@H]1CN(C(C)c2cc3cnccc3cn2)[C@H](CC)CN1c1cc(=O)n(C)c2cn(CC#N)nc12 (single isomer, unassigned) [Compound A368a] in its proper category? Many thanks.
bin A

Consider CC[C@H]1CN(C(C)c2ccc3c(n2)OCCN3C)[C@H](CC)CN1c1cc(=O)n(C)c2cn(CC#N)nc12 (stereo partly shown) . To which pIC50 class does it belong?
bin A
